Test system: iCell endothelial cells (human iPSC-derived ECs)
Experiment: High-content imaging cytotoxicity in iCell endothelial cells, 24 h
Format: cell-based
Conditions: Homo sapiens, Endothelial cell, iPSC-EC, 24 hr, 100.00 µM, 0.00 µM control = 100.00, read-out: endo.mitoint.24hr
Where a name gives a salt, the structure may show the parent alone.
Overview of reported activity at 100 µM across a group of molecules:

>>> reported_result("Oc1ccc(-c2ccc(Cl)cc2)cc1")
"91.2%"
>>> reported_result("O=S(=O)(O)Oc1cc(Cl)ccc1-c1ccccc1 [2-yl PCB 3 sulfate]")
"99.3%"
>>> reported_result("COc1ccc(-c2ccc(Cl)cc2)cc1")
"119%"
>>> reported_result("Oc1cc(Cl)cc(-c2cccc(Cl)c2)c1")
"62.5%"

Lab note: next molecule to report on.
Recorded activity at 100 µM for Oc1cc(Cl)c(-c2cc(Cl)ccc2Cl)cc1Cl on iCell endothelial cells (human iPSC-derived ECs) was 51.4%

====

Test system: HUVECs
Assay: Tube formation (tubulogenesis) assay in HUVECs, 18 h
Type: cell-based, human
Conditions: Homo sapiens, HUVEC, 18 h, HUVECs, 1.00 µM, 0.00 µM = 100.00, read-out: huvec.tlps.18hr
Structures can show the parent of a compound that is named as a salt.
MEASUREMENT LABEL: activity at 1 µM (%)
Kindly answer with a numeric value in %, unit omitted.

>>> reported_result("O=S(=O)(O)Oc1ccc(-c2cccc(Cl)c2)cc1Cl [4-yl PCB 11 sulfate]")
110

Quick note, activity at 1 µM for O=S(=O)(O)Oc1ccc(-c2ccc(Cl)cc2)cc1 [4'-yl PCB 3 sulfate] landed at 173

Quick note, activity at 1 µM for O=S(=O)(O)Oc1cc(Cl)c(-c2cc(Cl)ccc2Cl)cc1Cl [4-yl PCB 52 sulfate] landed at 111

Quick note, activity at 1 µM for Oc1ccc(-c2cccc(Cl)c2)cc1Cl landed at 149

Quick note, activity at 1 µM for Oc1cc(Cl)cc(-c2cccc(Cl)c2)c1 landed at 111

====

System: iCell endothelial cells (human iPSC-derived ECs)
Assay: Tube formation (tubulogenesis) assay in iCell endothelial cells, 18 h
Assay type: cell-based
Details: Homo sapiens, Endothelial cell, iPSC-EC tube formation, 18 hr, 10.00 µM, 0.00 µM control = 100.00, read-out: endo.ttl.18hr
Where a name gives a salt, the structure may show the parent alone.
Rule: activity at 10 µM below 90% gives Satisfied. Equal to or above 90% gives Not satisfied.

Some entries whose results are on file:
>>> category("O=S(=O)(O)Oc1cc(Cl)ccc1-c1ccccc1 [2-yl PCB 3 sulfate]")
"Satisfied"
>>> category("Oc1ccc(-c2cccc(Cl)c2)cc1Cl")
"Satisfied"
>>> category("O=S(=O)(O)Oc1ccc(-c2cccc(Cl)c2)cc1Cl [4-yl PCB 11 sulfate]")
"Not satisfied"
>>> category("COc1ccc(-c2ccc(Cl)cc2)cc1")
"Satisfied"

Task item: Is the reported activity at 10 µM for Clc1ccc(-c2ccccc2)cc1 strictly below 90%?
Reply: Not satisfied

====

System: iCell endothelial cells (human iPSC-derived ECs)
Test: High-content imaging cytotoxicity in iCell endothelial cells, 24 h
Assay type: cell-based
Settings: Homo sapiens, Endothelial cell, iPSC-EC, 24 hr, 0.10 µM, 0.00 µM control = 100.00, read-out: endo.mito.24hr
Structures can show the parent of a compound that is named as a salt.
MEASUREMENT LABEL: activity at 0.1 µM
Record the result as number plus unit.

As a guide, the following entries are already answered.
>>> reported_result("O=S(=O)(O)Oc1cccc(-c2ccc(Cl)cc2)c1 [3'-yl PCB 3 sulfate]")
"93.7%"
>>> reported_result("O=S(=O)(O)Oc1cc(-c2ccccc2)ccc1Cl [3-yl PCB 3 sulfate]")
"93.3%"
>>> reported_result("Oc1ccc(-c2cccc(Cl)c2)cc1Cl")
"102%"
>>> reported_result("O=S(=O)(O)Oc1ccc(-c2ccc(Cl)cc2)cc1 [4'-yl PCB 3 sulfate]")
"101%"
>>> reported_result("O=S(=O)(O)Oc1cc(Cl)ccc1-c1ccccc1 [2-yl PCB 3 sulfate]")
"97%"

Lab note: next compound to report on.
Recorded activity at 0.1 µM for O=S(=O)(O)Oc1cc(Cl)c(-c2cc(Cl)ccc2Cl)cc1Cl [4-yl PCB 52 sulfate] on iCell endothelial cells (human iPSC-derived ECs) was 92.7%

====

System: HUVECs
Assay: High-content imaging cytotoxicity in HUVECs, 24 h
Assay type: cell-based, human
Conditions: Homo sapiens, HUVEC, 24 h, HUVEC, cyto, 24 hr; read-out: POD huvec.cyto.24hr
Description: Similar to the cultivation of iCell®-endothelial cells, HUVEC maintenance and experimentation are detailed elsewhere ([Iwata et al. 2017]). […] Cytotoxicity was assessed in parallel experiments. […] Phenotypic responses were quantitatively assessed using concentration–response modeling as detailed elsewhere ([Sirenko et al. 2017]). Briefly, phenotypic readouts were normalized to vehicle controls and fit to a four-parameter logistic model in R studio software (version 3.1.1; R Development Core Team). […]
Where a name gives a salt, the structure may show the parent alone.
Decision: minimal effective concentration >= 0.8 µM yields met, all other cases yield not met.

>>> category("Oc1cccc(-c2ccc(Cl)cc2)c1")
"met"

Task item: Decide: minimal effective concentration of Clc1cc(Cl)c(-c2cc(Cl)c(Cl)cc2Cl)cc1Cl >= 0.8 µM?
Reply: not met

Task item: Decide: minimal effective concentration of Clc1ccc(Cl)c(-c2cc(Cl)ccc2Cl)c1 >= 0.8 µM?
Reply: not met

Task item: Decide: minimal effective concentration of COc1ccc(-c2ccc(Cl)cc2)cc1 >= 0.8 µM?
Reply: met

Task item: Decide: minimal effective concentration of O=S(=O)(O)Oc1cc(-c2ccccc2)ccc1Cl [3-PCB 3 sulfate] >= 0.8 µM?
Reply: met

Task item: Decide: minimal effective concentration of Clc1ccc(Cl)c(-c2c(Cl)ccc(Cl)c2Cl)c1 >= 0.8 µM?
Reply: not met

Task item: Decide: minimal effective concentration of Oc1cc(Cl)c(-c2cc(Cl)ccc2Cl)cc1Cl >= 0.8 µM?
Reply: met

====

Overview of reported activity at 100 µM across a group of compounds:
System: iCell cardiomyocytes (human iPSC-derived cardiomyocytes)
Assay: High-content imaging of cytotoxicity and mitochondrial integrity in iPSC-CMs
Type: cell-based
Conditions: Homo sapiens, Cardiomyocyte, 1.5 h, 100.00 µM; 90min; 0.00 µM = 100.00; read-out: cm.mito.90min
Structures can show the parent of a compound that is named as a salt.

As a guide, the following entries are already answered.
>>> reported_result("O=S(=O)(O)Oc1cc(Cl)c(-c2cc(Cl)ccc2Cl)cc1Cl [4-yl PCB 52 sulfate]")
"0.16%"
>>> reported_result("Clc1ccc(Cl)c(-c2c(Cl)ccc(Cl)c2Cl)c1")
"0.97%"
>>> reported_result("COc1cc(Cl)c(-c2cc(Cl)ccc2Cl)cc1Cl")
"0.37%"
>>> reported_result("Clc1cc(Cl)c(-c2cc(Cl)c(Cl)cc2Cl)cc1Cl")
"1.22%"

Lab note: next compound to report on.
Quick note, activity at 100 µM for Clc1ccc(Cl)c(-c2cc(Cl)ccc2Cl)c1 landed at 0.55%

====

Test system: iPSC-CMs, iPSC-ECs and HUVECs phenotypes
Test: ToxPi 2.0 integration of POD values and physicochemical descriptors
Set-up: species or system human
Conditions: ToxPi-scaled (0-1) score; iPSC endothelial cells, 24 h
Counter-ions that a name gives are not always drawn.
MEASUREMENT LABEL: endo.nma.24hr
Keep the answer to the number alone.

As a guide, the following entries are already answered.
>>> reported_result("Oc1cc(Cl)c(-c2cc(Cl)ccc2Cl)cc1Cl")
0.0802
>>> reported_result("Clc1ccc(-c2cc(Cl)c(Cl)c(Cl)c2)cc1Cl")
0
>>> reported_result("O=S(=O)(O)Oc1cccc(-c2ccc(Cl)cc2)c1 [3'-PCB 3 sulfate]")
0

Quick note, endo.nma.24hr for COc1ccc(-c2ccc(Cl)cc2)cc1 landed at 0

Quick note, endo.nma.24hr for COc1ccc(-c2cccc(Cl)c2)cc1Cl landed at 0

Quick note, endo.nma.24hr for Clc1ccc(Cl)c(-c2c(Cl)ccc(Cl)c2Cl)c1Cl [(-)-PCB 136, 2,2′,3,3′,6,6′-hexachlorobiphenyl] landed at 0

Quick note, endo.nma.24hr for Oc1ccc(O)c(-c2ccc(Cl)cc2)c1 [2',5'-diOH-PCB 3, 4-Chloro-2′,5′-dihydroxybiphenyl] landed at 0.3504

Quick note, endo.nma.24hr for Oc1ccccc1-c1ccc(Cl)cc1 landed at 0.7069

Quick note, endo.nma.24hr for O=S(=O)(O)Oc1cc(Cl)c(-c2cc(Cl)ccc2Cl)cc1Cl [4-PCB 52 sulfate] landed at 0

====

Overview of reported viability at 100 µM across a group of compounds:
Tested on: iCell cardiomyocytes (human iPSC-derived cardiomyocytes)
Experiment: High-content imaging of cytotoxicity and mitochondrial integrity in iPSC-CMs
Assay type: cell-based
Settings: Homo sapiens, Cardiomyocyte, 24 h, 100.00 µM; 0.00 µM = 100.00; read-out: cm.tc.24hrs
Counter-ions that a name gives are not always drawn.
Record the result as number plus unit.

As a guide, the following entries are already answered.
>>> reported_result("Oc1cc(Cl)cc(-c2cccc(Cl)c2)c1 [5-OH PCB 11]")
"0.0229%"
>>> reported_result("O=S(=O)(O)Oc1ccc(-c2ccc(Cl)cc2)cc1 [4'-yl PCB 3 sulfate]")
"105%"
>>> reported_result("Clc1ccc(-c2ccccc2)cc1 [PCB3]")
"1.49%"

Quick note, viability at 100 µM for O=C1C=CC(=O)C(c2ccc(Cl)cc2)=C1 [4-Cl-BQ, 2-(4-Chlorophenyl)benzo-2,5-quinone] landed at 100%
